Reference source: PubChem BioAssay (NCI)

- protocolDetails: NCI Yeast Anticancer Drug Screen. Data for the mlh1 rad18 strain (AID 175)
- protocolConditions: S. cerevisiae mlh1 rad18 strain growth inhibition; at 50.0 µM (retest, dose inferred, filed as 5.0)
- Procedure: Growth inhibition of yeast strains with defined genetic alterations is measured as a screen for potential anti-cancer activity. Selected strains with alterations in DNA damage repair or cell cycle control were exposed to compounds and growth inhibition was measured relative to vehicle treated controls. The strain used in this assay is mlh1 rad18
This is part of a sample that, as a whole, favours compounds with a hit. Of some 79,000 tested, about 15% had one in any assay. Active and inactive are the calls of the source. Rule as the data show it: active = growth inhibition above about 70%; inactive = the rest.
Select the matching outcome among active, inactive

molecule	group
Cc1ccc(O)c(Cc2cccc(Cl)c2)c1	active
NC(=O)C12OC3CC(CC(C3)O1)O2	inactive

Field: next molecule
(Q) Any idea what this test logged for COc1cc(C2c3cc4c(cc3OC3(O)C=C(C)OC(=O)C23)OCO4)cc(OC)c1OC (stereo not drawn) ?
(A) inactive

* * *

- protocolDetails: NCI Yeast Anticancer Drug Screen. Data for the sgs1 mgt1 strain (AID 161)
- protocolConditions: S. cerevisiae sgs1 mgt1 strain, at 50.0 µM (retest, dose inferred, filed as 5.0), active compounds read high
Compounds without any hit were thinned out: in the full panel of roughly 79,000, 15% have a hit.
Cut-off 50% on growth inhibition, inclusive. At or above means true; below means false.

Completed entries (count: 5):
compound	group
ClC(Cl)(Cl)C(c1ccccc1)c1ccccc1	false
CC(=O)Oc1c2c(c(OC(C)=O)c3c1n(C(C)=O)c1ccccc1n3C(C)=O)n(C(C)=O)c1ccccc1n2C(C)=O	false
CC(=O)Nc1ccc(/C=C2/NC(=S)N(/C=C3\C(=O)Oc4ccccc4C3=O)C2=O)cc1	false
Cn1c2c(c3ccccc31)CCN(CCCN1CCN(c3ccccc3)CC1)C2=O	true
COC1=CC(=O)c2ncc(Cl)cc2C1=O	true

(Q) Please check the record CCCN(CCC)c1ccc(/C=C/c2ccnc3ccccc23)cc1 and state if its growth inhibition is at or above 50%.
(A) true

(Q) Please check the record COc1cc(CNC(=O)CCCCCCCC/C=C/Br)ccc1O and state if its growth inhibition is at or above 50%.
(A) true

(Q) Please check the record COC1=CC(=O)c2c(O)c3c(c(O)c2C1=O)OC1(Oc2c(cc4cc(C)oc(=O)c4c2O)CC1O)C3O (stereo unspecified) and state if its growth inhibition is at or above 50%.
(A) true

(Q) Please check the record C1=Nc2ccccc2C=Nc2ccccc2C=Nc2ccccc2C=Nc2ccccc21.[Cl-].[Pt+2] and state if its growth inhibition is at or above 50%.
(A) true

(Q) Please check the record O=C(Nc1ccc(Br)cc1)c1c(-c2ccccc2)c2ccc(O)cc2oc1=O and state if its growth inhibition is at or above 50%.
(A) true

(Q) Please check the record COc1nc(NC2OC(CO)C(O)C(O)C2O)c(Cl)c(=O)[nH]1 (stereo unspecified) and state if its growth inhibition is at or above 50%.
(A) false

(Q) Please check the record CN(C(=O)c1ccccc1)C1(COC(=O)c2ccccc2)CCCCC1 and state if its growth inhibition is at or above 50%.
(A) false

(Q) Please check the record O=C1c2ccccc2C(=O)c2cc(O)ccc21 and state if its growth inhibition is at or above 50%.
(A) true

(Q) Please check the record Oc1ccccc1C1CCCCC1 and state if its growth inhibition is at or above 50%.
(A) false

(Q) Please check the record N#Cc1cccc2c1Sc1ccccc1N2 and state if its growth inhibition is at or above 50%.
(A) false

(Q) Please check the record CCCCNCCC1(c2ccccc2)C(=O)Oc2ccccc21 (stereo unspecified) and state if its growth inhibition is at or above 50%.
(A) false

(Q) Please check the record CCc1cc(-c2ccco2)c(C#N)c(=S)n1C1OC(COC(C)=O)C(OC(C)=O)C(OC(C)=O)C1OC(C)=O (stereo unspecified) and state if its growth inhibition is at or above 50%.
(A) false

(Q) Please check the record COc1ccc2nc3cc(Cl)ccc3c(NCCCN(Cc3cc(OC)c(OC)c(OC)c3)Cc3cc(OC)c(OC)c(OC)c3)c2c1 and state if its growth inhibition is at or above 50%.
(A) true

(Q) Please check the record C/C=C/C=C1\C=Cc2c(C(=O)OC)coc(=O)c21 and state if its growth inhibition is at or above 50%.
(A) true

(Q) Please check the record CC1=C(c2ccccc2)C(=O)OC1=O and state if its growth inhibition is at or above 50%.
(A) false

(Q) Please check the record CCOC(=O)c1c(Cl)nnc(-c2ccccc2)c1-c1ccccc1 and state if its growth inhibition is at or above 50%.
(A) true

(Q) Please check the record COC(=O)/C(=C/C=C(c1ccccc1)c1ccccc1)N(C(C)=O)C(C)=O and state if its growth inhibition is at or above 50%.
(A) true

(Q) Please check the record CC(=O)Oc1ccc(/C=C/c2ccncc2)cc1 and state if its growth inhibition is at or above 50%.
(A) false

(Q) Please check the record O=C(CBr)N1c2ccccc2Sc2ccc3ccccc3c21 and state if its growth inhibition is at or above 50%.
(A) true

(Q) Please check the record CCCCCCCCCCCC(=O)N(CCOC(=O)c1ccco1)CCOC(=O)c1ccco1 and state if its growth inhibition is at or above 50%.
(A) true
